- TARGET OR TEST SYSTEM: human FXR (NR1H4) (Homo sapiens (Human), UniProt Q96RI1)
- Sequence (Q96RI1 whole entry, the tested form may be a part): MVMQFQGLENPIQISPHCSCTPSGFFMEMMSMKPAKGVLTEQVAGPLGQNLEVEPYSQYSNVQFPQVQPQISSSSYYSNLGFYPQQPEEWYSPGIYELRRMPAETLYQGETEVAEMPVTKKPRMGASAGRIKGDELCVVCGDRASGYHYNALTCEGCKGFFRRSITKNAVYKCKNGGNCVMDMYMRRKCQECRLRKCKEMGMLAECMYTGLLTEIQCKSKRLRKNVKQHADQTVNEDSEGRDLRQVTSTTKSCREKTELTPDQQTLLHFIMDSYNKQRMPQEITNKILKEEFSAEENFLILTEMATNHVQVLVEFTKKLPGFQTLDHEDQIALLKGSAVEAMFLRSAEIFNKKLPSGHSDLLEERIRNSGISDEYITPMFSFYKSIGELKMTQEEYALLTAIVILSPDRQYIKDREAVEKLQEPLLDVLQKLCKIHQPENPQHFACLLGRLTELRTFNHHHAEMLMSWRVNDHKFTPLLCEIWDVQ
- ASSAY SUMMARY: Human FXR (NR1H4) Assay (Gal4 promoter driven luciferase reporter, Indigo Bioscience kit);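 also: 100% equals the efficacy of CDCA; efficacy normalized to CDCA set as 100%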
- Format: cell-based
- SETTINGS: read-out: Efficacy (%)
Here the recorded Emax is given for each entry.
Give the value in % but do not write % after it.

Study these solved cases before continuing.
# COMPOUND, Emax / %
data = [
    ("CC[C@H]1[C@@H](O)[C@@H]2[C@H](CC[C@]3(C)[C@@H]([C@H](C)CCCOC(=O)N4CCC(N5CCCCC5)CC4)CC[C@@H]23)[C@@]2(C)CC[C@@H](O)C[C@@H]12 [Example 148]", 37),
    ("CC[C@H]1[C@@H](O)[C@@H]2[C@H](CC[C@]3(C)[C@@H]([C@H](C)CCOC(=O)NS(=O)(=O)c4cnccn4)CC[C@@H]23)[C@@]2(C)CC[C@@H](O)C[C@@H]12 [Example 99]", 51),
    ("CC[C@H]1[C@@H](O)[C@@H]2[C@H](CC[C@]3(C)[C@@H]([C@H](C)CCOC(=O)N4CCC(CO)(CO)CC4)CC[C@@H]23)[C@@]2(C)CC[C@@H](O)C[C@@H]12 [Example 218]", 356),
    ("CC[C@H]1[C@@H](O)[C@@H]2[C@H](CC[C@]3(C)[C@@H]([C@H](C)CCOC(=O)NC4(C)CC4)CC[C@@H]23)[C@@]2(C)CC[C@@H](O)C[C@@H]12 [Example 135]", 224),
]

Query string: Look up Emax: CC[C@H]1[C@@H](O)[C@@H]2[C@H](CC[C@]3(C)[C@@H]([C@H](C)CCOC(=O)NC4CCCCC4)CC[C@@H]23)[C@@]2(C)CC[C@@H](O)C[C@@H]12 [Example 127]
Result string: 308
